# Tested on: anesthetized, normotensive cats
# MEASUREMENT_DESCRIPTION: Hypotensive effect in anesthetized, normotensive cats
# Type: in vivo, cat
# MEASUREMENT_PARAMETERS: 1 mg/kg id., 120 min
READOUT_LABEL: Mean arterial pressure, 120 min (Hgmm)
Answer with a number only, understood to be in Hgmm.

# example entries with known answers
                                   molecule                     study_system  number
0  COC(=O)C1=C(C)NC(C)=C(C(=O)OC)C1c1ccccc1NC(=O)c1cccc(C)c1  anesthetized, normotensive cats     120
1  COC(=O)C1=C(C)NC(C)=C(C(=O)OC)C1c1ccccc1NC(=O)c1ccc(C)cc1  anesthetized, normotensive cats      90
2  COC(=O)C1=C(C)NC(C)=C(C(=O)OC(C)C)C1c1ccccc1NC(=O)C(F)(F)F (stereo not shown)  anesthetized, normotensive cats     135
3  COC(=O)C1=C(C)NC(C)=C(C(=O)OC)C1c1ccccc1NC(=O)C(F)(F)F  anesthetized, normotensive cats     105
4  COC(=O)C1=C(C)NC(C)=C(C(=O)OC)C1c1ccccc1NC(=O)c1ccccc1  anesthetized, normotensive cats     145
5  COCCOC(=O)C1=C(C)NC(C)=C(C(=O)OC)C1c1ccccc1NC(=O)c1ccc([N+](=O)[O-])cc1 (stereo not shown)  anesthetized, normotensive cats     115
6  COC(=O)C1=C(C)NC(C)=C(C(=O)OC)C1c1ccccc1NC(=O)C=Cc1ccccc1  anesthetized, normotensive cats     102
7  COC(=O)C1=C(C)NC(C)=C(C(=O)OC)C1c1ccccc1NC(=O)c1ccc([N+](=O)[O-])cc1  anesthetized, normotensive cats      85
8  CCc1ccc(C(=O)Nc2ccccc2C2C(C(=O)OC)=C(C)NC(C)=C2C(=O)OC)cc1  anesthetized, normotensive cats      85
9  COC(=O)C1=C(C)NC(C)=C(C(=O)OC)C1c1ccccc1NC(=O)C=Cc1ccc([N+](=O)[O-])cc1  anesthetized, normotensive cats     132

`COC(=O)C1=C(C)NC(C)=C(C(=O)OC)C1c1ccccc1NC(=O)c1ccccc1C` has a reported Mean arterial pressure, 120 min of 110

`COC(=O)C1=C(C)NC(C)=C(C(=O)OC)C1c1ccccc1NC(=O)c1ccc(Cl)cc1` has a reported Mean arterial pressure, 120 min of 75

`COC(=O)C1=C(C)NC(C)=C(C(=O)OC)C1c1ccccc1NC(=O)c1ccc(OC)cc1` has a reported Mean arterial pressure, 120 min of 110

###

Collected pIC50 values appear next to each entry.
# STUDY_SYSTEM: 1,4-dihydropyridine receptor
# Construct: to the heart microsomal preparation
# Sequence (Q13936 whole entry): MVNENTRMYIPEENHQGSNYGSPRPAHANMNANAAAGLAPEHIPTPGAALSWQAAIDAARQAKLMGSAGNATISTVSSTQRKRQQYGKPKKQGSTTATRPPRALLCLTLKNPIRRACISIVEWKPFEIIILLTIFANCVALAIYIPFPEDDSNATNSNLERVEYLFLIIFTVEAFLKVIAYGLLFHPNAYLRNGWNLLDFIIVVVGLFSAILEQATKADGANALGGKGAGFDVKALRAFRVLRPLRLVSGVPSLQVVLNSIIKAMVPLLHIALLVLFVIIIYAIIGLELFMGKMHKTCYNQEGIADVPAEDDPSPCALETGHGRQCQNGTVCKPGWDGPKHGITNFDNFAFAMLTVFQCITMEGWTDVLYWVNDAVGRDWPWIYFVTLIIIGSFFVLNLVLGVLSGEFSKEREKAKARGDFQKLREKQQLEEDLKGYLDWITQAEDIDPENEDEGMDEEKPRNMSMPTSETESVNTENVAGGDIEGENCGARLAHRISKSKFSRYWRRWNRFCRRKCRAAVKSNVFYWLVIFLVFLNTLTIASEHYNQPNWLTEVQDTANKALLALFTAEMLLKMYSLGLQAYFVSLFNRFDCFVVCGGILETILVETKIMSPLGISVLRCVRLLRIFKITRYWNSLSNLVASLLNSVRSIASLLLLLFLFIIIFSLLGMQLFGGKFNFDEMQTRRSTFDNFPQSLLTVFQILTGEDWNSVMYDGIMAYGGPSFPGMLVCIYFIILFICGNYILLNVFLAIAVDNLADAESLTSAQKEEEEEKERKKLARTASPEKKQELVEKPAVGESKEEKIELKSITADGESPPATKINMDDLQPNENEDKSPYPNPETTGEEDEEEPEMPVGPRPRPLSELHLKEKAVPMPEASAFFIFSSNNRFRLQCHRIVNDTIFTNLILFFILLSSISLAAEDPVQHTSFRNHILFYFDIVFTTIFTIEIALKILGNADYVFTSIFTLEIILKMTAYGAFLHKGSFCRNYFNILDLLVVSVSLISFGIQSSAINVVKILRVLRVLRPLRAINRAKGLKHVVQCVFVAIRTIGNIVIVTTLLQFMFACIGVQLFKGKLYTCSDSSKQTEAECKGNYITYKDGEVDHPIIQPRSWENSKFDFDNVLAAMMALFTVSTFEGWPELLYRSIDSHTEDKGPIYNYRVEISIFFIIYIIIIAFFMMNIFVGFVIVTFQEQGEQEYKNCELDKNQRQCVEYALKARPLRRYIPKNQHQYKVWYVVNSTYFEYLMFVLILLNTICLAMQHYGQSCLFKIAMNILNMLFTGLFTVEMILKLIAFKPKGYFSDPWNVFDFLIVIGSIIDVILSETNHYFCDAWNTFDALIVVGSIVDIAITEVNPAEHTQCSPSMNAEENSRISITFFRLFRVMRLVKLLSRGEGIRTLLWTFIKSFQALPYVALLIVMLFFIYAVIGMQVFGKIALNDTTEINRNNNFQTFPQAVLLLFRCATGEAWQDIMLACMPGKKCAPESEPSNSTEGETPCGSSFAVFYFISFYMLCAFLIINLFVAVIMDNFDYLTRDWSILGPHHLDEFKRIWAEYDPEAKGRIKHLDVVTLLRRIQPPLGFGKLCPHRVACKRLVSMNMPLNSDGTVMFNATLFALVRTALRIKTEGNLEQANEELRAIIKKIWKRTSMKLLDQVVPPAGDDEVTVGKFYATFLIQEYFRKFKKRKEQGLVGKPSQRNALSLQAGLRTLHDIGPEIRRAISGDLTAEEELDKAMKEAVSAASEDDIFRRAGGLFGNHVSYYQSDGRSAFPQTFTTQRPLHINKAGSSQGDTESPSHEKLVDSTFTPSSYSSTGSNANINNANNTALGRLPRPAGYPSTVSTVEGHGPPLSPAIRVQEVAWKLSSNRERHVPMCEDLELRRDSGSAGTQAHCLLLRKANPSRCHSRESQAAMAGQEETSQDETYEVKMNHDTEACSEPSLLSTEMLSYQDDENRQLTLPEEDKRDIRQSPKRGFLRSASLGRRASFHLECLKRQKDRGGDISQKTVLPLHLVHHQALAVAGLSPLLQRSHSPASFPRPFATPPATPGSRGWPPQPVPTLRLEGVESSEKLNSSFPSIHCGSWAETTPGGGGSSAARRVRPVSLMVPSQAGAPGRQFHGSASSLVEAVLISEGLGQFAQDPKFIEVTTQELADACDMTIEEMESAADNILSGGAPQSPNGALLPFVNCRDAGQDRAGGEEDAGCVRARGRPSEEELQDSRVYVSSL
# Sequence (P54289 25-955 partner limits assumed): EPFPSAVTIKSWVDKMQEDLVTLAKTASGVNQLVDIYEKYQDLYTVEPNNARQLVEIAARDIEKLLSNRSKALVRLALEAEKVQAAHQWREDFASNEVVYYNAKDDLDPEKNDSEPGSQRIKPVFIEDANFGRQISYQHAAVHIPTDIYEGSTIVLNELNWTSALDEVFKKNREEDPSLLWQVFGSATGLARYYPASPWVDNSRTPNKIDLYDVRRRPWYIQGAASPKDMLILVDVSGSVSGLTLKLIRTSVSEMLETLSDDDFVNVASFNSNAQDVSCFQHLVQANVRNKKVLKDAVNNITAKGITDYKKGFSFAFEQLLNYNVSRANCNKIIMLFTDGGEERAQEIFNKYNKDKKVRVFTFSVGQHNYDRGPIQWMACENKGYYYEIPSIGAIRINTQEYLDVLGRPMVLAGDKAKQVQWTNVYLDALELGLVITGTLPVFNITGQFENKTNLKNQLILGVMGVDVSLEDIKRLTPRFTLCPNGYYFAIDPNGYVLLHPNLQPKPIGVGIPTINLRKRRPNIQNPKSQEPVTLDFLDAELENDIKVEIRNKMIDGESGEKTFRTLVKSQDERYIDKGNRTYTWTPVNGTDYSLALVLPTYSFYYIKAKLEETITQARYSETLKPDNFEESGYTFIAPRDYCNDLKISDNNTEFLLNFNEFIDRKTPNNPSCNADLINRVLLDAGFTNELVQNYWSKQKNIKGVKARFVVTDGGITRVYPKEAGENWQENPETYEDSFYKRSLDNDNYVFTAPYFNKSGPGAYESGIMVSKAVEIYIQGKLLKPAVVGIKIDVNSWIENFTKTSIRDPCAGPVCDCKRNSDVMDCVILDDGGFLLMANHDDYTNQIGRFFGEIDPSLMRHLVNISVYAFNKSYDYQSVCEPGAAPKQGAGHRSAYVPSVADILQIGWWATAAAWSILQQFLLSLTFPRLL
# Sequence (P54289 956-1103 partner limits assumed): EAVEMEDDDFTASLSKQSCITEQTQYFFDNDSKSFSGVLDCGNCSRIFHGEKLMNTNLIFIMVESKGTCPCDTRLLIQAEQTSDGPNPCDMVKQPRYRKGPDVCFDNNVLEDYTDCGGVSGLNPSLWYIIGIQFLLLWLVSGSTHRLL
# Sequence (Q08289 whole entry partner): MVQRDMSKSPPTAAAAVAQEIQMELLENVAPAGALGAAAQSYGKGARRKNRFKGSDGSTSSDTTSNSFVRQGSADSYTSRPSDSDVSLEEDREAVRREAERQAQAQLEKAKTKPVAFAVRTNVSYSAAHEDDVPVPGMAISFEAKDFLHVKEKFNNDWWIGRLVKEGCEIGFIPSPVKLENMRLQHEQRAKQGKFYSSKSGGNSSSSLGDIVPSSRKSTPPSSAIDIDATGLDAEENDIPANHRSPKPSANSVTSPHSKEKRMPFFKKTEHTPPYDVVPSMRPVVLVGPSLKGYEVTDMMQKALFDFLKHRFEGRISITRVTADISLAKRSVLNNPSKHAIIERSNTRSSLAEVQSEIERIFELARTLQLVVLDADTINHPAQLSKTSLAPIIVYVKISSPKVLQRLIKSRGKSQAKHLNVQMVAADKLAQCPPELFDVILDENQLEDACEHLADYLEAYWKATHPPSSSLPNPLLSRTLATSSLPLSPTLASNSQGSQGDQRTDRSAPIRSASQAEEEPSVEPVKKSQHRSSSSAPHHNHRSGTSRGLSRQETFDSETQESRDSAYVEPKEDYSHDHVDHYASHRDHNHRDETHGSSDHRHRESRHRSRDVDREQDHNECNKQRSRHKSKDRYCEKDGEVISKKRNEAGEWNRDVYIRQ
# MEASUREMENT_DESCRIPTION: Receptor binding studies (displacement of 3H-nitrendipine, heart microsomal preparation)
# MEASUREMENT_PARAMETERS: displacement of 50% of 3H-nitrendipine
Scale: negative log10 of molar concentration, which is what pIC50 denotes.

# example entries with known answers
>>> print(df.to_string())
                           molecular_string  number
0  COC(=O)C1=C(C)NC(C)=C(C(=O)OC)C1c1ccccc1NC(=O)c1ccc(C)cc1    7.81
1  COC(=O)C1=C(C)NC(C)=C(C(=O)OC)C1c1ccccc1NC(=O)C(F)(F)F    7.80

`COC(=O)C1=C(C)NC(C)=C(C(=O)OC)C1c1ccccc1NC(=O)c1ccc([N+](=O)[O-])cc1` has a reported pIC50 of 8.20

###

# System: PGF2alpha induced uterus contractions (isolated rat uterus)
# MEASUREMENT_DESCRIPTION: In vitro uterus relaxant activity in the isolated rat uterus (inhibition of PGF2alpha induced contraction)
# MEASUREMENT_PARAMETERS: 10^-6 M test compound
Tick Criterion met if Inhibition of PGF2alpha induced contraction is 90% or greater. Tick Criterion not met if Inhibition of PGF2alpha induced contraction is less than 90%.

                           molecular_string     classification
0  COC(=O)C1=C(C)NC(C)=C(C(=O)OC)C1c1ccccc1NC(=O)c1ccccc1[N+](=O)[O-]      Criterion met
1  COC(=O)C1=C(C)NC(C)=C(C(=O)OC)C1c1ccccc1NC(=O)C(F)(F)F      Criterion met
2  COC(=O)C1=C(C)NC(C)=C(C(=O)OC)C1c1ccccc1NC(=O)C=Cc1ccc([N+](=O)[O-])cc1  Criterion not met
3  COC(=O)C1=C(C)NC(C)=C(C(=O)OC)C1c1ccccc1NC(=O)c1ccco1      Criterion met

Threshold query (Inhibition of PGF2alpha induced contraction >= 90%) on `COC(=O)C1=C(C)NC(C)=C(C(=O)OC)C1c1ccccc1NC(=O)c1ccccc1`
Criterion not met

Threshold query (Inhibition of PGF2alpha induced contraction >= 90%) on `COC(=O)C1=C(C)NC(C)=C(C(=O)OC)C1c1ccccc1NC(=O)C=Cc1ccccc1`
Criterion met

###

# Tested on: spontaneously hypertensive conscious rats
# MEASUREMENT_DESCRIPTION: Antihypertensive effect in spontaneously hypertensive conscious rats ("SH" rats)
# Type: in vivo, rat (Wistar-Okamoto)
# MEASUREMENT_PARAMETERS: 10 mg/kg p.o., 24 h
Rule: measured Systolic blood pressure, 24 h below 200 Hgmm gets true; anything equal to or greater than 200 Hgmm gets false.

Previously resolved entries follow.
>>> print(df.to_string())
                                   molecule  classification
0  CCCCCCCC(=O)Nc1ccccc1C1C(C(=O)OC)=C(C)NC(C)=C1C(=O)OC            true
1  COC(=O)C1=C(C)NC(C)=C(C(=O)OC)C1c1ccccc1NC(=O)c1ccccc1            true
2  COCCOC(=O)C1=C(C)NC(C)=C(C(=O)OC)C1c1ccccc1NC(=O)C(F)(F)F (stereo not shown)           false
3  COC(=O)C1=C(C)NC(C)=C(C(=O)OC)C1c1ccccc1NC(=O)C=Cc1ccccc1            true
4  COC(=O)C1=C(C)NC(C)=C(C(=O)OC)C1c1ccccc1NC(=O)c1ccc([N+](=O)[O-])cc1           false

Below 200 Hgmm on Systolic blood pressure, 24 h? Entry `COC(=O)C1=C(C)NC(C)=C(C(=O)OC)C1c1ccccc1NC(=O)c1ccc(OC)cc1`
false

Below 200 Hgmm on Systolic blood pressure, 24 h? Entry `COC(=O)C1=C(C)NC(C)=C(C(=O)OC)C1c1ccccc1NC(=O)C=Cc1ccc([N+](=O)[O-])cc1`
true

Below 200 Hgmm on Systolic blood pressure, 24 h? Entry `COC(=O)C1=C(C)NC(C)=C(C(=O)OC)C1c1ccccc1NC(=O)C(F)(F)F`
false

###

# Tested on: spontaneously hypertensive conscious rats
# MEASUREMENT_DESCRIPTION: Antihypertensive effect in spontaneously hypertensive conscious rats ("SH" rats)
# Assay type: in vivo, rat (Wistar-Okamoto)
# MEASUREMENT_PARAMETERS: Rattus norvegicus, po, 10 mg/kg p.o., 5 h, read-out: Systolic blood pressure reduction in %, 5 h
Collected change in vivo at 10 mg/kg values appear next to each entry.
Answer with a number only, understood to be in %.

# example entries with known answers
>>> print(df.to_string())
                                   compound  number
0  COC(=O)C1=C(C)NC(C)=C(C(=O)OC)C1c1ccccc1NC(=O)C=Cc1ccc([N+](=O)[O-])cc1 [Example 11]     -16
1  COCCOC(=O)C1=C(C)NC(C)=C(C(=O)OC)C1c1ccccc1NC(=O)C(F)(F)F (stereo not shown) [Example 36]     -19
2  COC(=O)C1=C(C)NC(C)=C(C(=O)OC)C1c1ccccc1NC(=O)c1ccccc1 [Example 12]     -13
3  COC(=O)C1=C(C)NC(C)=C(C(=O)OC)C1c1ccccc1NC(=O)C=Cc1ccccc1 [Example 9]     -13
4  COC(=O)C1=C(C)NC(C)=C(C(=O)OC)C1c1ccccc1NC(=O)c1ccc([N+](=O)[O-])cc1 [Example 7]     -28
5  CCCCCCCC(=O)Nc1ccccc1C1C(C(=O)OC)=C(C)NC(C)=C1C(=O)OC [Example 18]     -11
6  COCCOC(=O)C1=C(C)NC(C)=C(C(=O)OC)C1c1ccccc1NC(=O)c1ccc([N+](=O)[O-])cc1 (stereo not shown) [Example 28]     -16
7  COC(=O)C1=C(C)NC(C)=C(C(=O)OC)C1c1ccccc1NC(=O)C(F)(F)F [Example 34]     -19
8  COC(=O)C1=C(C)NC(C)=C(C(=O)OC)C1c1ccccc1NC(=O)c1ccc(OC)cc1 [Example 14]     -17

Lab note: next compound to report on.
COC(=O)C1=C(C)NC(C)=C(C(=O)OC)C1c1ccccc1NC(=O)c1ccccc1C [Example 21] has a reported change in vivo at 10 mg/kg of -14
